Target: T1, UNK ZnF1-3 (human, UniProt Q9C0B0 31-174)
T1 sequence: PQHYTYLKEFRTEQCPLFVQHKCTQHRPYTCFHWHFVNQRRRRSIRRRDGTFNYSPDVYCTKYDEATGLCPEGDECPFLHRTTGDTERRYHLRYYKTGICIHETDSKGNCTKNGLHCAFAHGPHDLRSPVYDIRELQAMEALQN
Experiment: nsRBNS (natural sequence RNA bind-n-seq); RBNS binding buffer (assumed for nsRBNS): 25 mM Tris pH 7.5, 150 mM KCl, 3 mM MgCl2, 0.01% Triton X-100, 500 ug/ml BSA, 20 U/ml SUPERase-In, 4 C; UNK is unkempt and MSI1 is Musashi-1; names of the RNAs are library labels; protein concentration not given here; high values mean tight binding
Whole data set: some 24,000 sequences, median “enrichment r” near 0.99, cut for the highest 2% near 3.7. The entries come from a sample that favours the highest values as a whole.
In this section, each of the binders is paired with its reported binding signal.
Provide only the numeric value, understood in enrichment R.

Some binders with known binding signal results, for comparison:
Reported binding signal ( 31603315_31603435_826_3pUTR_ENSMUSG00000024261_ENSMUST00000025110|mouse|control|control (ssRNA) RNA: GGGAGUUCUACAGUCCGACGAUCUUCCUGAGCACUCUGGUCUUCACUCUGUGCUUCUUCUCUGGUAAGAUUGUCAUUUUGAUGUACGGGUCAGAGGUCAUGGAUUGCUCGUCCAUGGCUGGUAAGCCCUGGGCUUCCUUGAUGCAACAGAGGAUUGAGCAUCA ) = 0.411

Reported binding signal ( chr8:98731313:98731314:+_ENSG00000147649_ENST00000336273|hu_mus|motif|central (ssRNA) RNA: GGGAGUUCUACAGUCCGACGAUCACAAGCUUUCUCCUGUUUUGGUCGGGCUUUUGAGGUAUUCACUGGAAGCUCUUCUCGGGUGUCCUUUUCUAGGUCUUCUGUGUCCUGUGUGUGAGAGUUAUCUUCCCCUUGCUUCUUCUUCAACAGAGGAUUGAGCAUCA ) = 0.279

***
Reported binding signal ( 74491169_74493004_2024_3pUTR_ENSMUSG00000020745_ENSMUST00000021091|mouse|control|control (ssRNA) RNA: GGGAGUUCUACAGUCCGACGAUCAUCAACGGCACUCCCACACCUUUACUGUUUGAUCUACACUGCCAGUAACCACAUAGGGUGCCGUCUUAUGGAAAUCCAAGGAGGUAACAAAGUGUUCAUGCGCAUUGAGGGUCUUCAUGCCAACAGAGGAUUGAGCAUCA ) = 0.744
